target: Butyrylcholinesterase (Rattus norvegicus, UniProt Q9JKC1); assay: Inhibition of BuChE in rat serum
Sequence (Q9JKC1 whole entry): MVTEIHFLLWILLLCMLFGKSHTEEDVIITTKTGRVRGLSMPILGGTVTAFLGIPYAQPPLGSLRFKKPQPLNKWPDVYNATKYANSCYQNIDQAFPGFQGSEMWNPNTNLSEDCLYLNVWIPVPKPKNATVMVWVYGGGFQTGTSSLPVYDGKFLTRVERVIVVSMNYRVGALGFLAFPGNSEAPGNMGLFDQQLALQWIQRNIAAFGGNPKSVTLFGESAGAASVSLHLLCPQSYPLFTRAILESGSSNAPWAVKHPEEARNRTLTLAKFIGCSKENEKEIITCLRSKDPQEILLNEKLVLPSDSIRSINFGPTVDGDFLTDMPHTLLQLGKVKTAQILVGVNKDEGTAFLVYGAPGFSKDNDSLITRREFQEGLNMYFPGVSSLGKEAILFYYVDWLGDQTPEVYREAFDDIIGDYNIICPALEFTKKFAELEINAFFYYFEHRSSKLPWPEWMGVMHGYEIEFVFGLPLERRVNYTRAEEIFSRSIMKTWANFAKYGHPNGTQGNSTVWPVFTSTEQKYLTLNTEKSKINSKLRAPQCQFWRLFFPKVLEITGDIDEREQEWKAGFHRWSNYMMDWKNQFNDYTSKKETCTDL
What IC50 was measured for each of the following?
Numbers only, in µM.

Some solved entries appear below for comparison.
[
  {
    "Smiles string": "CC1=C[C@H]2Cc3[nH]c(=O)ccc3[C@@]3(C1)[C@@H]2CCCN3C(=O)CCN(C)CCCCCCCCCCN(C)CCC(=O)N1CCC[C@@H]2[C@H]3C=C(C)C[C@]21c1ccc(=O)[nH]c1C3",
    "Assayed system": "Butyrylcholinesterase (Rattus norvegicus, UniProt Q9JKC1)",
    "Value type": "IC50",
    "Measured": 65
  },
  {
    "Smiles string": "CC1=C[C@H]2Cc3[nH]c(=O)ccc3[C@@]3(C1)[C@@H]2CCCN3C(=O)CN(C)CCCCCCCCCCN(C)Cc1ccc(F)cc1",
    "Assayed system": "Butyrylcholinesterase (Rattus norvegicus, UniProt Q9JKC1)",
    "Value type": "IC50",
    "Measured": 3.48
  },
  {
    "Smiles string": "CC1=C[C@H]2Cc3[nH]c(=O)ccc3[C@@]3(C1)[C@@H]2CCCN3C(=O)CN(C)CCCCCCN(C)CC(=O)N1CCC[C@@H]2[C@H]3C=C(C)C[C@]21c1ccc(=O)[nH]c1C3",
    "Assayed system": "Butyrylcholinesterase (Rattus norvegicus, UniProt Q9JKC1)",
    "Value type": "IC50",
    "Measured": 64.5
  },
  {
    "Smiles string": "CC1=C[C@H]2Cc3[nH]c(=O)ccc3[C@@]3(C1)[C@@H]2CCCN3C(=O)CCN(C)CCCCCCCCN(C)CCC(=O)N1CCC[C@@H]2[C@H]3C=C(C)C[C@]21c1ccc(=O)[nH]c1C3",
    "Assayed system": "Butyrylcholinesterase (Rattus norvegicus, UniProt Q9JKC1)",
    "Value type": "IC50",
    "Measured": 63
  },
  {
    "Smiles string": "COc1ccccc1CN(C)CCCCCCCCCCN(C)CC(=O)N1CCC[C@@H]2[C@H]3C=C(C)C[C@]21c1ccc(=O)[nH]c1C3",
    "Assayed system": "Butyrylcholinesterase (Rattus norvegicus, UniProt Q9JKC1)",
    "Value type": "IC50",
    "Measured": 8.65
  }
]

Proceed to the following item.
compound `CC1=C[C@H]2Cc3[nH]c(=O)ccc3[C@@]3(C1)[C@@H]2CCCN3C(=O)CCN(C)CCCCCCCCCCCCN(C)CCC(=O)N1CCC[C@@H]2[C@H]3C=C(C)C[C@]21c1ccc(=O)[nH]c1C3` , IC50 observed: 88.4

---

species: Rattus norvegicus; experiment: Selectivity ratio of IC50 for rat BuChE to rat IC50 for AchE
Answer each item with its documented Ratio IC50.

Record excerpt, results attached:
[
  {
    "Smiles string": "CC1=C[C@H]2Cc3[nH]c(=O)ccc3[C@@]3(C1)[C@@H]2CCCN3C(=O)CCN(C)CCCCCCCCN(C)CCC(=O)N1CCC[C@@H]2[C@H]3C=C(C)C[C@]21c1ccc(=O)[nH]c1C3",
    "Ratio IC50": 3400
  },
  {
    "Smiles string": "CC1=C[C@H]2Cc3[nH]c(=O)ccc3[C@@]3(C1)[C@@H]2CCCN3C(=O)CN(C)CCCCCCCCN(C)CC(=O)N1CCC[C@@H]2[C@H]3C=C(C)C[C@]21c1ccc(=O)[nH]c1C3",
    "Ratio IC50": 1290
  }
]

Working through the 4 molecules below one at a time, give Ratio IC50 for each.
1. CC1=C[C@H]2Cc3[nH]c(=O)ccc3[C@@]3(C1)[C@@H]2CCCN3C(=O)CCN(C)CCCCCCN(C)CCC(=O)N1CCC[C@@H]2[C@H]3C=C(C)C[C@]21c1ccc(=O)[nH]c1C3
2. COc1ccccc1CN(C)CCCCCCCCCCN(C)CC(=O)N1CCC[C@@H]2[C@H]3C=C(C)C[C@]21c1ccc(=O)[nH]c1C3
3. CC1=C[C@H]2Cc3[nH]c(=O)ccc3[C@@]3(C1)[C@@H]2CCCN3C(=O)CN1CCN(CC(=O)N2CCC[C@@H]3[C@H]4C=C(C)C[C@]32c2ccc(=O)[nH]c2C4)CC1
4. CC1=C[C@H]2Cc3[nH]c(=O)ccc3[C@@]3(C1)[C@@H]2CCCN3CCN1CCCN(CCN2CCC[C@@H]3[C@H]4C=C(C)C[C@]32c2ccc(=O)[nH]c2C4)CC1

RESULT:
1: 1890; 2: 410; 3: > 157; 4: 573
